- assay.comment: Chelating power (ChP) method
- condition.set: individual compounds; maximum assay concentration 100 mM
measured.parameter: ChP (µmol EDTAE/mmol X)
# number only, unit µmol EDTAE/mmol X dropped from output

# return recorded ChP for entry C=C1C2CCC(C2)C1(C)C (stereo not shown)
1.6

# return recorded ChP for entry CC1=CC[C@@H](C(C)(C)O)CC1
4.9

# return recorded ChP for entry Cc1ccc(C(C)C)cc1
20.1

# return recorded ChP for entry CC(C)C12CCC(C)(O)C1C2 (stereo not shown) [Sabinene hydrate]
6.7

# return recorded ChP for entry C=CC(C)(O)CCC=C(C)C (stereo not shown)
96.9

# return recorded ChP for entry C=CC(=C)CCC=C(C)C
2.5

# return recorded ChP for entry CC1=CCC(C(C)C)=CC1
0.3

# return recorded ChP for entry CC12CCC(CC1)C(C)(C)O2
1.1

# return recorded ChP for entry CC1=CC=C(C(C)C)CC1
62.2

# return recorded ChP for entry C=CC(C)(CCC=C(C)C)OC(C)=O (stereo not shown) [Linalyl acetate]
27.4

----------
- Test system: Staphylococcus aureus ATCC 6538
- assay.comment: Broth microdilution MIC and MBC
- Format: cell-based
- condition.set: ATCC6538, read-out: MBC
What MBC was measured for each of the following?

# return recorded MBC for entry CC1=CC[C@@H](C(C)(C)O)CC1 [α-Terpineol]
1100 µg/mL

# return recorded MBC for entry Cc1ccc(C(C)C)cc1 [p-Cymene]
> 2000 µg/mL

# return recorded MBC for entry CC1=CCC2CC1C2(C)C (stereo not drawn) [α-Pinene]
> 2100 µg/mL

# return recorded MBC for entry C=CC(C)(O)CCC=C(C)C (centres unmarked) [Linalool]
1100 µg/mL

# return recorded MBC for entry C=C1CCC2(C(C)C)CC12 (centres unmarked) [Sabinene]
> 2000 µg/mL

# return recorded MBC for entry C=CC(=C)CCC=C(C)C [Myrcene]
> 2100 µg/mL

# return recorded MBC for entry CC12CCC(CC1=O)C2(C)C (centres unmarked) [Camphor]
> 2300 µg/mL

# return recorded MBC for entry CC(=O)OC1CC2CCC1(C)C2(C)C (centres unmarked) [Bornyl acetate]
> 2900 µg/mL

----------
- assay.comment: ABTS radical method
- condition.set: individual compounds; maximum assay concentration 100 mM
- Protocol: Five antioxidant methods were performed with SlEOs and their main individual compounds in triplicate. In the oxygen radical absorbance capacity (ORAC) assay, peroxyl radicals are produced by 2,2′-Azobis(2-methylpropionamidine) dihydrochloride (AAPH), which reacts with fluorescein giving a non-fluorescent compound [61]. The antioxidants are able to scavenge these peroxyl radicals. […] The ChP method measured the ability to chelate Fe^2+ ion, following the method of Miguel et al.. […]
What ABTS was measured for each of the following?

# return recorded ABTS for entry CC1=CC=C(C(C)C)CC1 [α-Terpinene]
4.0 ± 0.2 µmol TE/mmol X

# return recorded ABTS for entry C=C1CCC2CC1C2(C)C (stereo not drawn) [β-Pinene]
0.1 ± 0.0 µmol TE/mmol X

# return recorded ABTS for entry C=CC(C)(CCC=C(C)C)OC(C)=O (stereo not drawn) [Linalyl acetate]
0.1 ± 0.0 µmol TE/mmol X

# return recorded ABTS for entry CC1=CC[C@@H](C(C)(C)O)CC1 [α-Terpineol]
0.2 ± 0.0 µmol TE/mmol X
